protein stability index values by entry
Test: protein stability index of a GFP-peptide fusion (yeast GPS) (PSI 1-4); higher = more stable; sorted into four equal gates, so the index is relative within each strain
Conditions: pdr5∆

- RLELLQLSPVKNSRVEL [SMC4]: 3.54

## Input Let me know recorded protein stability index for VNRSVVVSAVGEARNDI [YAR002W/NUP60] , thanks.
## Output 2.57

## Input Please look at this sequence and report its protein stability index: IRVAETRGGASALIENN [YJL039C/NUP192]
## Output 2.46

## Input Dear colleague, please send me the reported protein stability index for IKQQQQQQQQQNGQQPP [YML103C/NUP188] when you can.
## Output 2.63

## Input Give reported protein stability index value for SEEIDSLNEDVEEIKLQ [SMC2]
## Output 3.41

## Input Consider the sequence GSADIGASVISLTKDKS [SIR4] and give its recorded protein stability index.
## Output 3.12

## Input Assign protein stability index to the following record: ADNTKDKEKEENNDDAL [MED4]
## Output 3.04

## Input Item NFEATKKSVLKQVQDFE [COR1] : provide protein stability index
## Output 2.39

## Input Tell me measured protein stability index for LVESVDRFKPNLDIAKD [MED4] please.
## Output 3.33

## Input Given TRNPDAPKGSTDPKELY [RPC40] , respond with its protein stability index.
## Output 3.63

## Input Give protein stability index for MSQGQSKKLDVTVEQLR [NSL1]
## Output 2.74

## Input Consider the sequence DVVEYLDKVINKELPIN [RPN8] . State its measured protein stability index.
## Output 3

## Input Annotate the sequence QHPFPLAHSQHRCAIRS [SSN2] with its measured protein stability index.
## Output 1.42

====

Test: protein stability index of a GFP-peptide fusion (yeast GPS) (PSI 1-4); higher = more stable; sorted into four equal gates, so the index is relative within each strain
Settings: san1∆
reported.property: protein stability index
Provide a numeric answer; units are not to be included.

• PRMASVFENYVKKTGEN [CDC53] = 3.54
• TSLITAVYGPRSIRGSF [MTR3] = 2.55
• DIILGQNIKAPSVKRQK [PRP8] = 1.53
• IPTTKNLRLLVEENRVR [DLS1] = 2.87
• FRFDSIQRETLLPTNNG [GRR1] = 2.69
• LEGEEIKSEEKKGKSSD [RPN1] = 3.05

Now take the following sequence into account.
## Input Give me measured protein stability index, please, for this sequence: AHAQHQPSQQPQQAQQQ [GAL11]
## Output 3

====

Quick reference: protein stability index of the listed items.
Assay: protein stability index of a GFP-peptide fusion (yeast GPS) (PSI 1-4); higher = more stable; sorted into four equal gates, so the index is relative within each strain
Settings: ubr1∆
Keep it simple and answer with nothing but the number.

Example results:
* DDVRDFVIRREVTKGEK [RPS6A] | 3.62
* SFVKETKLHSGDYGEEE [SRB8] | 3.44
* YLMDSKNVRTRIKLATT [RRI1] | 1.99
* VSLTKRKQEREITSLRQ [YIL149C/MLP2] | 2.35
* GQRPDRATTYEKLTMVF [SIN4] | 1.14

## Input For EQKITEIEDGQDGGVTP [RPO21] , write its protein stability index.
## Output 3.31

## Input Quick one: give measured protein stability index for PSHEKLKESYSQKHNGR [CDC53]
## Output 3.04

## Input Return protein stability index (reported value) for this sequence: SIREDILECDLLICIGT [SIR2]
## Output 2.39

====

Test: protein stability index of a GFP-peptide fusion (yeast GPS) (PSI 1-4); higher = more stable; sorted into four equal gates, so the index is relative within each strain
Conditions: san1∆
Threshold rule: protein stability index greater than or equal to 3 is Condition met; below that, Condition not met.

## Input Tell me whether protein stability index is at least 3 here: RKASCIWLLSYIQYLGH [ECM29]
## Output Condition not met

## Input Reported protein stability index reaches at least 3 for NGIPLKSKERSSQFVRL [YMR129W/POM152] ?
## Output Condition met

## Input # check: protein stability index of ILCIFEGEKCHPQDFGN [SEC65] is greater than or equal to 3
## Output Condition not met

## Input hey, is protein stability index for this one >= 3? ARCYRYQKNKPYPKSRY [RPL10]
## Output Condition not met

## Input Assess whether reported protein stability index for PAAANLDALVDCENFFN [YJL039C/NUP192] sits at 3 or higher.
## Output Condition not met

## Input API: above_or_equal(metric=protein stability index, cutoff=3) for item LMTFNAETKSYDSRGVG [YLR335W/NUP2]
## Output Condition not met

====

Assay: protein stability index of a GFP-peptide fusion (yeast GPS) (PSI 1-4); higher = more stable; sorted into four equal gates, so the index is relative within each strain
Conditions: san1∆
# protein stability index annotations
Answer with the value's number alone.

In the examples that follow, each entry is paired with its recorded protein stability index.
* SIKDTQNVGQGKLQRKE [BRN1] | 1.94
* SAGLDSAQQNLASSFVN [RPN1] | 2.79
* LQEIYQTDAIKSDEAKW [RPN5] | 2.13
* AIYNNPTRIRTKSSKEF [RRI2] | 1.68
* NSSNYAELFNNDIKLFV [PRP8] | 2.26
* NTEGSVVYEDSLELEKV [SNF2] | 2.48

## Input Input SAAAAGNRNSSSVFLPS [BRR2] , output reported protein stability index.
## Output 3.13

## Input # return recorded protein stability index for entry PVKSIRARLKGKEGRIR [RPO21]
## Output 3.33

## Input Please supply the value of reported protein stability index for the item LRQKHEFLEDFDLVRNI [SMC2]
## Output 3.14

## Input Indicate its recorded protein stability index; the sequence in question is DLLKNAPLFKKNSSRPM [SMD3]
## Output 1.77

## Input Report measured protein stability index; entry is TLDRNTAAETFKLFNKY [RPL8A]
## Output 3.08

## Input Tell us which protein stability index value is on record for QTKENKRCVGVILGDAN [RPN8]
## Output 2.74

====

Experiment: protein stability index of a GFP-peptide fusion (yeast GPS) (PSI 1-4); higher = more stable; sorted into four equal gates, so the index is relative within each strain
Conditions: san1∆
reported.property: protein stability index

Some solved cases for reference:
• VLILLHAERDLALAETL [SRP68] = 2.96
• SRLKALNLQFKAKVDDL [YLR335W/NUP2] = 3.05
• KYLGLKPGSIDAISQVI [FAS1] = 2.91
• KLLAISKFNNADDVFTG [RPC31] = 2.92
• ELLEHIETIGHLITKEE [RPN5] = 3.08
• GGRYVYPVHEAHKGQIV [SNU114] = 3.01
• LGNSIVKESNNYYSNKS [REC8] = 2.94

// switching to the query sequence
## Input State its protein stability index for this sequence: PSQSEEQKGQMAKKEGT [MED4]
## Output 3.07

====

Assay: protein stability index of a GFP-peptide fusion (yeast GPS) (PSI 1-4); higher = more stable; sorted into four equal gates, so the index is relative within each strain
Details: doa10∆
Below is a list of entries, each paired with its recorded protein stability index value.

* PLIWQLLQSSIINKLIH [POP3] | 2
* MGQIATFIYFAYFLIIV [COB] | 1.63
* TSQMDLARDTPSANNSS [RRP4] | 1.86
* IDHSDESNRQSVIVDSK [ESC2] | 3.18
* QKEEGRSFTKAIEDAKK [YLR335W/NUP2] | 3.1
* ENRKKDESDSENDIEIK [YLR335W/NUP2] | 2.68
* EEGEYKNAANTEGHKGH [ISW2] | 3.31
* IHEIDERLAKVNEMNDQ [NNF1] | 1.37

Next, consider the following sequence.
## Input Give the reported value of protein stability index for this record: GSADIGASVISLTKDKS [SIR4]
## Output 3.01

====

Test: protein stability index of a GFP-peptide fusion (yeast GPS) (PSI 1-4); higher = more stable; sorted into four equal gates, so the index is relative within each strain
Settings: san1∆
reported.property: protein stability index
In your answer, state the number alone without any accompanying words.

Some solved entries appear below for comparison.
- GVWDVDNPLRQIPHFNN [BRR2]: 3.26
- NPLIELTPIQKKIMDET [ITC1]: 3.24
- VLKTLIEKFEQVPDSLD [RPN6]: 3.37
- NKIRNLELPLCPYCYKK [SIR2]: 1.97
- LRKLKKMNNKPERFMVF [RPC53]: 3.03
- SSNILEDILYYSTCPSE [SRB8]: 2.77

## Input Write down protein stability index measured for item RQKARTDAHTPLARNYI [RPR2]
## Output 2.78

## Input Recall and state the measured protein stability index for EPYHFISNYNTKYTDDM [SRB8] .
## Output 3.01

## Input Read the entry HLLRQTNAFLDSLTRAV [SNF2] and write its reported protein stability index.
## Output 2.69

## Input Complete the entry with protein stability index for FDNFLTEEELQAAVPDN [BRN1]
## Output 2.54

## Input State its protein stability index for this sequence: LGLLLPIAASTDLPIET [RPN1]
## Output 1.79

## Input Recall and state the measured protein stability index for DPFSDVDDDQDYVVAPG [GRR1] .
## Output 1.74

## Input Please give the documented protein stability index of EDGLLEGLDELPKIIQL [SOH1]
## Output 3.12

## Input // Input: ELNYFVGCKNLERLTLV [GRR1] . Output its protein stability index only.
## Output 2.19

## Input Please report the measured protein stability index for LNVYHYFGENSSISWKN [YJL039C/NUP192]
## Output 2.65
